Hey, just so you know, these numbers are from patent US11266655B2.

System: OTC
run_description: OTC expression modulated by compounds, OTC/GeoMean of housekeeping genes, DMSO = 1 (Table 3A)
Type: cell-based, human
assay_setup: 10 uM final concentration
observed_property: Max Value (OTC/GeoMean of HKs; DMSO = 1)

>  <molecule>
COc1cc2c(cc1OC)CN(C(=O)/C=C/c1c(-c3ccccc3)n(C)c3ncccc13)CC2

>  <observed_result>
1.46

$$$$
>  <molecule>
O=C(NCCCNc1nc(Nc2cccc(CN3CCOCC3)c2)ncc1C1CC1)C1CCC1

>  <observed_result>
1.68

$$$$
>  <molecule>
Cc1cc(Nc2nc(N[C@@H](C)c3ncc(F)cn3)ncc2Cl)[nH]n1

>  <observed_result>
1.46

$$$$
>  <molecule>
CC1(C)CC(=O)c2c(C(F)(F)F)nn(-c3ccc(C(N)=O)c(N[C@H]4CC[C@H](OC(=O)CN)CC4)c3)c2C1 [PF-04929113 (SNX-5422)]

>  <observed_result>
1.73

$$$$
>  <molecule>
CC1(C)CC[C@]2(C(=O)O)CC[C@]3(C)[C@H](C(=O)C=C4[C@@]5(C)C=C(C#N)C(=O)C(C)(C)[C@@H]5CC[C@]43C)[C@@H]2C1

>  <observed_result>
2.76

$$$$

* * *

System: CPS1
run_description: HSP90 or HSP70 inhibitors in primary human hepatocytes, CPS1 mRNA
Format: cell-based
assay_setup: 3 uM; hepatocytes from Donor B; normalized to B2M
Counter-ions that a name gives are not always drawn.
Outcome: yes (1) for CPS1 Expression mRNA FC of at least 2; no (0) for anything lower.

>  <compound>
COc1c(C)cnc(Cn2cnc3c(Cl)nc(N)nc32)c1C

>  <label_class>
yes (1)

$$$$
>  <compound>
CC1(C)CC(=O)c2c(C(F)(F)F)nn(-c3ccc(C(N)=O)c(N[C@H]4CC[C@H](OC(=O)CN)CC4)c3)c2C1

>  <label_class>
yes (1)

$$$$
>  <compound>
C=CCNC1=C2C[C@@H](C)C[C@H](OC)[C@H](O)[C@@H](C)/C=C(\C)[C@H](OC(N)=O)[C@@H](OC)/C=C\C=C(/C)C(=O)NC(=CC1=O)C2=O

>  <label_class>
yes (1)

$$$$
>  <compound>
C=CCNc1c(O)cc2c(O)c1C[C@@H](C)C[C@H](OC)[C@H](O)[C@@H](C)/C=C(\C)[C@H](OC(N)=O)[C@@H](OC)/C=C\C=C(/C)C(=O)N2 [Retaspimycin Hydrochloride]

>  <label_class>
yes (1)

$$$$
>  <compound>
NS(=O)(=O)C#Cc1ccccc1

>  <label_class>
no (0)

$$$$
>  <compound>
CO[C@H]1/C=C\C=C(/C)C(=O)NC2=CC(=O)C(NCCN(C)C)=C(C[C@@H](C)C[C@H](OC)[C@H](O)[C@@H](C)/C=C(\C)[C@@H]1OC(N)=O)C2=O [Alvespimycin hydrochloride]

>  <label_class>
no (0)

$$$$
>  <compound>
CCNC(=O)c1noc(-c2cc(C(C)C)c(O)cc2O)c1-c1ccc(CN2CCOCC2)cc1

>  <label_class>
no (0)

$$$$
>  <compound>
CO[C@H]1/C=C\C=C(/C)C(=O)NC2=CC(=O)C(NCCN(C)C)=C(C[C@@H](C)C[C@H](OC)[C@H](O)[C@@H](C)/C=C(\C)[C@@H]1OC(N)=O)C2=O [Alvespimycin]

>  <label_class>
no (0)

$$$$
>  <compound>
COc1cccc(-c2cc(F)ccc2[C@H]2Cc3nc(N)nc(C)c3C(=O)N2)n1

>  <label_class>
no (0)

$$$$
